pIC50: recorded values
- targetEntity: HLA DQ molecule DQB1*0503 (human)
- protocolDescription: inhibition of radiolabeled peptide binding to purified HLA class II
The read-out pIC50 is expressed as -log10 of concentration in moles per litre.

Illustrative cases are given below, each with its answer.
[[record]]
binder = "IAFFRKEPLKECGGI [Lol p 11 peptide, position 116, IAFFRKEPLKECGGI (Peptide ID 3337.0029)]"
reading = 6.04

[[record]]
binder = "NVFDEVIPTAFTVGK [Lol p 3 peptide, position 76, NVFDEVIPTAFTVGK (Peptide ID 3324.1141)]"
reading = 5.54

[[record]]
binder = "DAYVATLTEALRVIA [Lol p 5 1 peptide, position 151, DAYVATLTEALRVIA (Peptide ID 3324.1167)]"
reading = 4.30


Note: attention shifts to another entry.
Q: Name the recorded pIC50 of the binder listed here: IKSDKPLKGPFNFRF [Lol p 2 peptide, position 56, IKSDKPLKGPFNFRF (Peptide ID 3324.1140)]
A: 4.30
